- System: CCRF-CEM
- procedure_summary: NCI tumour cell line growth inhibition, 48 h
The source made the active and inactive calls. Cut-off read from the data, not from the text of the source: active = GI50 up to about 1.1 µM and inactive = higher. Where a SMILES comes first, the peptide text is derived from it. [ ]: non-standard residue; d: D form. The star is where a group is joined. Bn2Val = CC(C)[C@@H](C(=O)*)N(Cc1ccccc1)Cc1ccccc1; NH(3,4-diMeO-benzyl) = COc1ccc(CN*)cc1OC; NMeV = CN[C@H](C(=O)O)C(C)C
Pick one and only one: active, inactive

compound | classification
CC/C(CC(=O)CCC(=O)Nc1c(C)cccc1C)=N\NC(=O)NN | inactive
O=C1c2ccccc2C(=O)[C@@]23O[C@@]12C1(Oc2cccc4cccc(c24)O1)[C@@H]1O[C@@H]1[C@@H]3O | inactive
C=CCN1C(=O)CS/C1=N\NC(=O)c1c(C)nc2sccn12 | inactive
O=C(O)c1cc(=O)c2c([nH]c3ccccc32)s1 | inactive
COc1ccc(-c2cc3ccccc3[nH]c2=O)cc1OC | inactive

Prompt line: Which outcome did this test record for the compound `O=S(=O)(O)c1ccc2c(/N=N/c3ccc(Cl)cc3)c(O)ccc2c1` ?
Response line: inactive

Prompt line: Which outcome did this test record for the compound O=C(NC1=C(Cl)C(=O)c2ccccc2C1=O)C(=O)C(C(=O)c1ccc2ccccc2c1)C1OC(=O)c2ccccc21 (stereo not given) ?
Response line: inactive

Prompt line: Which outcome did this test record for the compound COC(=O)C1Cc2cc3c(cc2C1=O)CCCC3 (stereo not given) ?
Response line: inactive

Prompt line: Which outcome did this test record for the compound COc1ccc(CNC(=O)[C@@H]2CCCN2C(=O)[C@@H]2CCCN2C(=O)[C@H](C(C)C)N(C)C(=O)[C@@H](NC(=O)[C@H](C(C)C)N(Cc2ccccc2)Cc2ccccc2)C(C)C)cc1OC (Bn2Val-V[NMeV]PP-{NH(3,4-diMeO-benzyl)}) ?
Response line: inactive

Prompt line: Which outcome did this test record for the compound CC1(CO)C(=O)OC12CCCCC2 (stereo not given) ?
Response line: inactive

Prompt line: Which outcome did this test record for the compound CC(C(=O)c1ccc(Cl)cc1)/C(=N/NC(=O)NN)C(=O)Nc1cccc(C(F)(F)F)c1 (stereo not given) ?
Response line: inactive

Prompt line: Which outcome did this test record for the compound `Cc1cc(N(CCOS(C)(=O)=O)CCOS(C)(=O)=O)ccc1/C=N/c1ccc(-c2nc(Cc3ccccc3)sc2C)cc1` ?
Response line: active

Prompt line: Which outcome did this test record for the compound `C=CCn1cnc2c(O)nc(Nc3ccccc3)nc21` ?
Response line: inactive

Prompt line: Which outcome did this test record for the compound `N#Cc1c(Cl)c2cc([N+](=O)[O-])ccc2n2c1nc1ccccc12` ?
Response line: active

Prompt line: Which outcome did this test record for the compound `COc1cc2cc[n+](C)c(Cc3ccccc3)c2cc1OC` ?
Response line: inactive

Prompt line: Which outcome did this test record for the compound `CO/C(N)=C(C#N)/N=C/c1ccco1` ?
Response line: inactive

Prompt line: Which outcome did this test record for the compound Cc1ccccc1OCC(COC(=O)Nc1ccccc1)OC(=O)Nc1ccccc1 (stereo not given) ?
Response line: inactive
